Here we gather pIC50 data for TEC (Homo sapiens) reported by several publications.
pIC50: −log10 of the molar value.

- Cc1cnc2[nH]cc(C(=O)c3cc(NS(=O)(=O)C4CCCCC4)ccc3F)c2c1: ≥ 5.00
- CN(c1ncnc2[nH]ccc12)C1CCCCN(C(=O)CNc2cc(Cl)cc(Cl)c2)C1 (centres unmarked): < 5.00
- CN(C)C(=O)N1CC[C@H](Nc2n[nH]c3nccc(-c4ccc(CNC(=O)c5ccc(C(C)(C)C)cc5)c(F)c4)c23)C1: 5.39
- C[C@H]1CC[C@@H](Nc2n[nH]c3nccc(-c4ccc(CNC(=O)c5noc(C(C)(C)C)n5)c(F)c4)c23)CN1C(=O)NCC(F)(F)F: < 5.00
- COc1cccc(-c2nn([C@@H]3CCN(C(=O)/C=C/CN(C)C4CCC4)C3)c3ncnc(N)c23)c1: > 7.00
- CC(C)(C)c1ccc2c(c1)CCN(Cc1ccc(-c3ccnc4[nH]nc(N[C@@H]5CCN(C=O)C5)c34)cc1F)C2=O: 5.13
- C[C@@H](NC(=O)c1nc(C(C)(C)C)no1)c1ccc(-c2ccnc3[nH]nc(N[C@@H]4CC[C@H](C)N(C(=O)N(C)C)C4)c23)cc1F: 6.42
- O=C(c1c(F)ccc(NS(=O)(=O)c2cccnc2)c1F)c1c[nH]c2ncc(Cl)cc12: ≥ 5.00
- CC(C)c1noc(C(=O)NCc2ccc(-c3ccnc4[nH]nc(N5CC[C@@H](N)C5)c34)cc2F)n1: 6.00
- CCCS(=O)(=O)Nc1ccc(F)c(C(=O)c2c[nH]c3ncc(-c4cnc(OC)nc4OC)cc23)c1F: ≥ 5.00

Give one value of pIC50 per listed compound.
1. C[C@@H](NC(=O)c1noc(C(C)(C)C)n1)c1ccc(-c2ccnc3[nH]nc(N[C@@H]4CC[C@H](C)N(C(=O)N(C)C)C4)c23)cc1F
2. C[C@@H](NC(=O)c1nc(C(C)(C)C)no1)c1ccc(-c2ccnc3[nH]nc(N4CCOCC4)c23)cc1
3. CC(C)(C)c1noc(C(=O)NCc2ccc(-c3ccnc4[nH]nc(N[C@H]5CCCNC5)c34)cc2F)n1
4. CCCS(=O)(=O)Nc1ccc(F)c(C(=O)c2c[nH]c3ncc(CCCN4CCOCC4)cc23)c1F
5. Cn1cc(-c2cnc3[nH]cc(C(=O)c4cc(NS(=O)(=O)c5cccc(F)c5)ccc4F)c3c2)cn1
6. NC(=O)c1cnc2[nH]ccc2c1N[C@H]1CCCN(C(=O)CNc2cc(Cl)cc(Cl)c2)[C@H]1C(F)(F)F

### Response
1. 6.47
2. 6.11
3. < 5.00
4. ≥ 5.00
5. ≥ 5.00
6. > 7.00

---

The entries that follow carry pIC50 values tested on TEC (Homo sapiens, UniProt P42680), drawn from several published reports.
Sequence (P42680 whole entry): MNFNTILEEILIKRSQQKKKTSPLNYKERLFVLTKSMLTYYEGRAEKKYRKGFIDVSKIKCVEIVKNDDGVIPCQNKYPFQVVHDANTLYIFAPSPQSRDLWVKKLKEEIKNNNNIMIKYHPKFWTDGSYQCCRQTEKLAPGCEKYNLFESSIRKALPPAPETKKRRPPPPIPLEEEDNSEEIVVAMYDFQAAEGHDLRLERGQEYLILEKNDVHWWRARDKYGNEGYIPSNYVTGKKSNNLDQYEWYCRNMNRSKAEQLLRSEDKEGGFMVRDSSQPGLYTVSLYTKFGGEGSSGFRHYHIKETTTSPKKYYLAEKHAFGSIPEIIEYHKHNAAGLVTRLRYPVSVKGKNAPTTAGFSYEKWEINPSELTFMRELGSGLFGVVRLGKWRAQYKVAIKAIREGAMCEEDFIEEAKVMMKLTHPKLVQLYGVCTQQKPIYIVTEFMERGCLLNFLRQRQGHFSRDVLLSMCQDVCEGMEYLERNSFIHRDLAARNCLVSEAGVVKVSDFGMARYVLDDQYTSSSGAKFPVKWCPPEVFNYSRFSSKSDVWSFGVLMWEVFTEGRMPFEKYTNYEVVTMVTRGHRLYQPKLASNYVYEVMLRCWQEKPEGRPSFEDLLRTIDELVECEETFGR
Numbers only, as −log10 of the molar value.

A selection of reference data follows.
• C=CC(=O)N1CC[C@@H](Nc2n[nH]c3nccc(-c4ccc(CNC(=O)c5ccc(C(C)(C)C)cc5)c(F)c4)c23)C1 = 6.89
• CC(C)(C)c1noc(C(=O)NCc2ccc(-c3ccnc4[nH]nc(N5CCC(N)C5)c34)cc2F)n1 (centres unmarked) = 5.88
• C[C@@H](NC(=O)c1nc(C(C)(C)C)no1)c1ccc(-c2ccnc3[nH]nc(C4CCN(C(=O)N(C)C)CC4)c23)cc1 = 5.02

Would you mind listing pIC50 for each of the following compounds?
1. CNC1CCN(c2n[nH]c3nccc(-c4ccc(CN(C)C(=O)c5nc(C(C)(C)C)no5)c(F)c4)c23)C1 (centres unmarked)
2. C[C@H](NC(=O)c1noc(C(C)(C)C)n1)c1ccc(-c2ccnc3[nH]nc(N[C@@H]4CCN(C=O)C4)c23)cc1
3. O=C(NCc1ccc(-c2ccnc3[nH]nc(N[C@@H]4CCNC4)c23)cc1F)c1ccccc1
4. C=CC(=O)N1CC[C@]2(C1)C[C@H](n1c(NC(=O)c3cc(C(C)C)no3)nc3cc(CN4CCCC4)ccc31)C2

### Response
5.10
5.02
5.19
7.02

Record pIC50 per entry; entries follow.
1. C[C@H]1CC[C@@H](Nc2n[nH]c3nccc(-c4ccc(CNC(=O)c5cc(C(C)(C)O)on5)c(F)c4)c23)CN1C(=O)N(C)C
2. C=CC(=O)N1CC[C@@H](Nc2n[nH]c3nccc(-c4ccc([C@H](C)NC(=O)c5noc(C(C)(C)C)n5)c(F)c4)c23)C1
3. CC#CC(=O)N1[C@@H]2COC[C@@H]2C[C@H]1c1nc(-c2ccc(C(=O)Nc3ccccn3)cc2)c2c(N)nccn12

### Response
1: 5.51; 2: 6.62; 3: 6.81

---

Note to self: these compounds have pIC50 reported for TEC (Homo sapiens, UniProt P42680) in various publications.
One number for each entry, as −log10 of the molar value.

Some solved cases for reference:
* C=CC(=O)N1CC[C@@H](Nc2n[nH]c3nccc(-c4cccc(NC(=O)c5noc(C(C)(C)C)n5)c4)c23)C1 | 5.56
* CC(=O)N[C@@H]1CCN(c2n[nH]c3nccc(-c4ccc(CNC(=O)c5nc6c(s5)CCCC6)c(F)c4)c23)C1 | 5.27
* C=CC(=O)N[C@@H]1CCN(c2n[nH]c3nccc(-c4ccc([C@@H](C)NC(=O)c5cc(C(C)(C)O)on5)cc4)c23)C1 | 6.36
* C=CC(=O)Nc1cccc(-c2nc(Nc3cccc(N4CCOCC4)c3)nc3[nH]ncc23)c1 | 7.30
* C=CC(=O)N1CC[C@@H](Nc2n[nH]c3nccc(-c4ccc(CNC(=O)c5cc(C(C)(C)O)on5)c(F)c4)c23)C1 | 6.93
* C=CC(=O)Nc1cc(Nc2nc(-c3ccnc(N4CCn5c(cc6c5CC(C)(C)C6)C4=O)c3CO)cn(C)c2=O)ccc1N1CCN(C2CCOCC2)C[C@H]1C(F)(F)F | 6.82
* C=CC(=O)N1CC[C@@H](Nc2n[nH]c3nccc(-c4ccc(CNC(=O)c5cc(Cl)on5)c(F)c4)c23)C1 | 6.68
* C[C@@H](NC(=O)c1cc(C(C)(C)O)on1)c1ccc(-c2ccnc3[nH]nc(NC4CCCCC4)c23)cc1 | 5.03
* O=C(NCc1ccc(-c2ccnc3[nH]nc(N[C@@H]4CCNC4)c23)cc1F)c1ccc(C2CC2)cc1 | 5.15

Now look at this entry.
### Prompt Suppose we examine the compound CC(C)(C)c1nc(C(=O)NCc2ccc(-c3ccnc4[nH]nc(N[C@@H]5CCCNC5)c34)cc2F)no1 ; what pIC50 value has been reported?
### Response 5.35

---

Literature roundup of TEC (Homo sapiens, UniProt P42680) data, read-out IC50.

Consider the following illustrative entries.
* N#Cc1cnc2[nH]cc(C(=O)c3cccc(NS(=O)(=O)c4cccc(F)c4)c3F)c2c1 | ≤ 10 µM
* CCN(CC)S(=O)(=O)Nc1ccc(F)c(C(=O)c2c[nH]c3nccc(OC)c23)c1F | ≤ 10 µM
* C[C@@H](NC(=O)c1nc(C(C)(C)C)no1)c1ccc(-c2ccnc3[nH]nc(NC4CCCC4)c23)cc1 | 8.34 µM
* CCC[C@@H](Nc1cc(F)cc(Cl)c1)C(=O)N1CCC2CCN(c3ncnc4[nH]ccc34)C2C1 (stereo partly shown) | 0.1 to 0.999 µM
* C=CC(=O)N1CCC[C@@H](n2nc(-c3ccc(C(=O)Nc4ncccc4F)cc3)c3c(N)ncc(C#N)c32)C1 | 0.00292 µM
* CS(=O)(=O)Nc1cccc(-c2cnc3[nH]cc(C(=O)c4cc(NS(C)(=O)=O)ccc4F)c3c2)c1 | ≤ 10 µM

Would you be so kind as to report IC50 for each listed record?
1. C=CC(=O)N1CCc2ccc(-n3c(=O)ccc4cnc5ccc(-c6cn[nH]c6)cc5c43)cc21
2. CCCS(=O)(=O)Nc1ccc(F)c(C(=O)c2c[nH]c3ncc(C(=O)OCC)cc23)c1F
3. COc1cc(-c2nn(-c3ccc(NC(=O)/C=C/CN(C)C)cc3)c3ncnc(N)c23)ccc1C
4. CC(C)(O)c1ccc(C(=O)NCc2ccc(-c3ccnc4[nH]nc(N[C@H]5CC[C@H](O)CC5)c34)cc2F)cc1
5. CCCS(=O)(=O)Nc1ccc(F)c(C(=O)c2c[nH]c3ncc(-c4ccc(NC(C)=O)cc4)cc23)c1F
6. CC(C)(C)c1nc(C(=O)NCc2ccc(-c3ccnc4[nH]nc(N[C@H]5CCN(C=O)C5)c34)cc2F)no1
7. Cc1cnc2[nH]cc(C(=O)c3cc(NS(=O)(=O)C4CCCC4)ccc3F)c2c1
8. CC(C)(C#N)c1cc(C(=O)NCc2ccc(-c3ccnc4[nH]nc(N5CC[C@@H](N)C5)c34)cc2F)no1

### Response
1: 0.057 µM; 2: ≤ 10 µM; 3: < 0.1 µM; 4: > 10 µM; 5: ≤ 10 µM; 6: 3.77 µM; 7: ≤ 10 µM; 8: 1.28 µM

Could I get IC50 for every one of these entries?
1. Cn1cc(-c2cnc3[nH]cc(C(=O)c4cc(NS(=O)(=O)C5CCCCC5)ccc4F)c3c2)cn1
2. COc1cnc2[nH]cc(C(=O)c3cccc(NS(=O)(=O)C4CCCC4)c3)c2c1

### Response
["≤ 10 µM", "≤ 10 µM"]
